Ref: ChEMBL document CHEMBL4261490

Assay: Cytotoxicity against human HepG2 cells assessed as reduction in cell viability pretreated for 1 hr followed by DMEM addition measured after 24 hrs by alamar blue assay
Format: cell-based
Conditions: read-out: ED50
Square brackets hold non-standard residues; d marks the D form. Peptide text beside a SMILES is read from it. Gly(N-(CH2)6NH2) = NCCCCCCNCC(=O)O; Gly(N-2-aminoethyl) = NCCNCC(=O)O; Nphe = O=C(O)CNCc1ccccc1; Nlys = NCCCCNCC(=O)O
Provide the recorded CC50 at 24 h for the entries that follow.

Exercise: I'd like to know its CC50 at 24 h. The compound in question is CC(c1ccccc1)N(CC(=O)N(CCCCN)CC(=O)N(CC(=O)N(CC(=O)N(CCCCN)CC(=O)N(CC(=O)N(CC(N)=O)[C@@H](C)c1ccccc1)Cc1ccc(F)cc1)C(C)c1ccccc1)Cc1ccc(F)cc1)C(=O)CN(Cc1ccc(F)cc1)C(=O)CNCCCCN (single isomer, unassigned)
Key: 36 µM

Exercise: I'd like to know its CC50 at 24 h. The compound in question is NCCCCNCC(=O)N(CC(=O)N(CC(=O)N(CCCCN)CC(=O)N(CC(=O)N(CC(=O)N(CCCCN)CC(=O)N(CC(=O)N(CC(=O)N(CCCCN)CC(=O)N(CC(=O)N(CC(N)=O)Cc1ccccc1)Cc1ccccc1)Cc1ccccc1)Cc1ccccc1)Cc1ccccc1)Cc1ccccc1)Cc1ccccc1)Cc1ccccc1 (H-[Nlys][Nphe][Nphe][Nlys][Nphe][Nphe][Nlys][Nphe][Nphe][Nlys][Nphe][Nphe]-NH2)
Key: > 100 µM

Exercise: I'd like to know its CC50 at 24 h. The compound in question is NCCNCC(=O)N(CC(=O)N(CC(=O)N(CCN)CC(=O)N(CC(=O)N(CC(=O)N(CCN)CC(=O)N(CC(=O)N(CC(=O)N(CCN)CC(=O)N(CC(=O)N(CC(N)=O)Cc1ccccc1)Cc1ccccc1)Cc1ccccc1)Cc1ccccc1)Cc1ccccc1)Cc1ccccc1)Cc1ccccc1)Cc1ccccc1 (H-[Gly(N-2-aminoethyl)][Nphe][Nphe][Gly(N-2-aminoethyl)][Nphe][Nphe][Gly(N-2-aminoethyl)][Nphe][Nphe][Gly(N-2-aminoethyl)][Nphe][Nphe]-NH2)
Key: > 100 µM

Exercise: I'd like to know its CC50 at 24 h. The compound in question is C[C@H](c1ccccc1)N(CC(N)=O)C(=O)CN(C(=O)CN(CCCCN)C(=O)CN(C(=O)CN(C(=O)CN(CCCCN)C(=O)CN(C(=O)CN(C(=O)CNCCCCN)[C@H](C)c1ccccc1)[C@@H](C)c1ccccc1)[C@H](C)c1ccccc1)[C@@H](C)c1ccccc1)[C@H](C)c1ccccc1 (stereo in doubt)
Key: > 100 µM

Exercise: I'd like to know its CC50 at 24 h. The compound in question is NCCCCCCNCC(=O)N(CC(=O)N(CC(=O)N(CCCCCCN)CC(=O)N(CC(=O)N(CC(N)=O)Cc1ccccc1)Cc1ccccc1)Cc1ccccc1)Cc1ccccc1 (H-[Gly(N-(CH2)6NH2)][Nphe][Nphe][Gly(N-(CH2)6NH2)][Nphe][Nphe]-NH2)
Key: > 100 µM

====

Assay: Selectivity index, ratio of ED50 for human HepG2 cells to MIC for Escherichia coli K-12 W3110 ATCC 27325
Type: toxicity
Details: read-out: Selectivity Index
Square brackets hold non-standard residues; d marks the D form. Peptide text beside a SMILES is read from it. Nspe = C[C@H](NCC(=O)O)c1ccccc1; NhArg = N=C(N)NCCCCNCC(=O)O; Nlys = NCCCCNCC(=O)O
metric: selectivity ratio
Give only the figure.

Exercise: I'd like to know its selectivity ratio. The compound in question is `NCCCCNCC(=O)N(CC(=O)N(CC(=O)N(CCCCN)CC(=O)N(CC(=O)N(CC(=O)N(CCCCN)CC(=O)N(CC(=O)N(CC(N)=O)Cc1ccccc1)Cc1ccccc1)Cc1ccccc1)Cc1ccccc1)Cc1ccccc1)Cc1ccccc1`
Key: 2

Exercise: I'd like to know its selectivity ratio. The compound in question is C[C@@H](c1ccccc1)N(CC(N)=O)C(=O)CN(C(=O)CN(CCCCNC(=N)N)C(=O)CN(C(=O)CN(C(=O)CN(CCCCNC(=N)N)C(=O)CN(C(=O)CN(C(=O)CN(CCCCNC(=N)N)C(=O)CN(C(=O)CN(C(=O)CNCCCCNC(=N)N)[C@@H](C)c1ccccc1)[C@@H](C)c1ccccc1)[C@@H](C)c1ccccc1)[C@@H](C)c1ccccc1)[C@@H](C)c1ccccc1)[C@@H](C)c1ccccc1)[C@@H](C)c1ccccc1 (H-[NhArg][Nspe][Nspe][NhArg][Nspe][Nspe][NhArg][Nspe][Nspe][NhArg][Nspe][Nspe]-NH2)
Key: 2

Exercise: I'd like to know its selectivity ratio. The compound in question is C[C@@H](c1ccccc1)N(CC(N)=O)C(=O)CN(C(=O)CN(CCCCN)C(=O)CN(C(=O)CN(C(=O)CN(CCCCNC(=N)N)C(=O)CN(C(=O)CN(C(=O)CN(CCCCN)C(=O)CN(C(=O)CN(C(=O)CNCCCCNC(=N)N)[C@@H](C)c1ccccc1)[C@@H](C)c1ccccc1)[C@@H](C)c1ccccc1)[C@@H](C)c1ccccc1)[C@@H](C)c1ccccc1)[C@@H](C)c1ccccc1)[C@@H](C)c1ccccc1 (H-[NhArg][Nspe][Nspe][Nlys][Nspe][Nspe][NhArg][Nspe][Nspe][Nlys][Nspe][Nspe]-NH2)
Key: 2
